Reference source: patent US11066414B2

system: TNFα; experiment: Cot Monocyte TNFα Cell Based Assay; conditions: Homo sapiens, Monocyte, read-out: EC50 TNF, LPS-stimulated human monocytes, TNFα
value.kind: EC50 (nM)

[a] Cc1nc(F)ccc1[C@H](Nc1cc(Cl)c2ncc(C#N)c(NCC(C)(C)C)c2c1)c1cn(C2(C(C)C)CC2)nn1
[b] CC(C)(C)CNc1c(C#N)cnc2c(C#N)cc(N[C@H](c3cn(CC(F)(F)F)nn3)c3cccc4ncsc34)cc12
# input Between a and b , which one shows the larger EC50 value? Record your answer as the label of the chosen record.
# output b

[a] Cn1ccc2c([C@H](Nc3cc(Cl)c4ncc(C#N)c(NCC5(C(F)(F)F)CCC5)c4c3)c3cn(C4(C(F)F)CC4)nn3)cccc2c1=O
[b] [2H][C@](Nc1cc(C#N)c2ncc(C#N)c(NCC(C)(C)C)c2c1)(c1ccc(F)nc1)c1cn(C2CC2)nn1
# input Quick one: lower EC50, a or b ? Record your answer as the label of the chosen record.
# output a

====

test system: TNFα; test: Cot Monocyte TNFα Cell Based Assay; conditions: Homo sapiens, Monocyte, read-out: EC50 TNF, LPS-stimulated human monocytes, TNFα TR-FRET
value.kind: EC50 (µM)

Some compounds with recorded EC50:
| compound | unit.spec | EC50 |
| --- | --- | --- |
| Cc1nc(F)ccc1[C@H](Nc1cc(C#N)c2ncc(C#N)c(NCC(C)(C)C)c2c1)c1cn(CC2(C(F)(F)F)CC2)nn1 | µM | 0.094 |
| Cc1ccc([C@H](Nc2cc(C#N)c3ncc(C#N)c(NCC(C)(C)C)c3c2)c2cn(C3(C(F)F)CC3)nn2)c(C)n1 | µM | 0.066 |
| Cc1nc(F)ccc1[C@H](Nc1cc(C#N)c2ncc(C#N)c(NCC(C)(C)C(F)(F)F)c2c1)c1nnn(C2(C3CC3)CC2)c1F | µM | 0.049 |
| Cn1cccc([C@H](Nc2cc(C#N)c3ncc(C#N)c(NCC(C)(C)C)c3c2)c2cn(C3(C(F)(F)F)CC3)nn2)c1=O | µM | 0.417 |
| Cc1nc(F)ccc1[C@H](Nc1cc(C#N)c2ncc(C#N)c(NCC(C)(C)C)c2c1)c1cn(C2CC23CC3)nn1 (stereo partly shown) | µM | 0.015 |

[P] CC(C)(C)CNc1c(C#N)cnc2c(C#N)cc(N[C@H](c3cn(C4CC4)nn3)c3csc4cnccc34)cc12
[Q] Cc1nc(F)ccc1[C@H](Nc1cc(Cl)c2ncc(C#N)c(NCC(C)(C)C(F)(F)F)c2c1)c1nnn(C23CC(C2)C3)c1F
# input Between P and Q , which one shows the larger EC50 value? Record your answer as the label of the chosen record.
# output Q

[a] Cc1nc(F)ccc1[C@H](Nc1cc(C#N)c2ncc(C#N)c(NCC(C)(C)C)c2c1)c1cn(C2(C(C)(C)C)CC2)nn1
[b] Cn1c(=O)ccc2c([C@H](Nc3cc(C#N)c4ncc(C#N)c(NCC(C)(C)C)c4c3)c3cn(C4(C(F)(F)F)CC4)nn3)cccc21
[c] Cn1ccc2c([C@H](Nc3cc(C#N)c4ncc(C#N)c(NCC(C)(C)C(F)(F)F)c4c3)c3cn(C4(C5CC5)CC4)nn3)cccc2c1=O
[d] CC(C)(C)CNc1c(C#N)cnc2c(Cl)cc(N[C@H](c3cn(C4(C(F)(F)F)CC4)nn3)c3cccc4c(Cl)nccc34)cc12
[e] CC(C)(C)CNc1c(C#N)cnc2c(C#N)cc(N[C@H](c3cn(C4(C(F)(F)F)CC4)nn3)c3cccc4c(=O)n(C(F)F)ccc34)cc12
# input Task field, ranking: reported EC50, descending order. Return the labels ranked in the requested order, please.
# output d, e, b, a, c
(d: 0.269 µM, e: 0.104 µM, b: 0.068 µM, a: 0.031 µM, c: 0.018 µM)

[a] Cc1ncsc1[C@H](Nc1cc(C#N)c2ncc(C#N)c(NCC(C)(C)C)c2c1)c1cn(C2(C(F)(F)F)CC2)nn1
[b] Cn1ccc2c([C@H](Nc3cc(C#N)c4ncc(C#N)c(NCC(C)(C)C(F)(F)F)c4c3)c3cn(C4(C(F)(F)F)CC4)nn3)cccc2c1=O
[c] Cc1nc(C#N)ccc1[C@H](Nc1cc(C#N)c2ncc(C#N)c(NCC(C)(C)C)c2c1)c1cn(C2(C(F)(F)F)CC2)nn1
[d] COc1c([C@@H](Nc2cc(Cl)c3ncc(C#N)c(NCC(C)(C)C)c3c2)c2ccc(F)nc2C)nnn1C
# input Task field, ranking: reported EC50, descending order. Return the labels ranked in the requested order, please.
# output c, d, a, b

====

system: TNFα; experiment: Cot Monocyte TNFα Cell Based Assay; conditions: Homo sapiens, Monocyte, read-out: EC50 TNF, LPS-stimulated human monocytes, TNFα
value.kind: EC50 (nM)

Some molecules with recorded EC50:
| molecule | value.kind | unit.spec | value.reported |
| --- | --- | --- | --- |
| [2H][C@](Nc1cc(Cl)c2ncc(C#N)c(Nc3cnc(F)c(F)c3)c2c1)(c1cccnc1)c1cn(-c2ccccc2)nn1 | EC50 | nM | 429 |
| Cc1nc(F)ccc1[C@H](Nc1cc(C#N)c2ncc(C#N)c(NC3CCCCC3)c2c1)c1cn(C2(C(F)(F)F)CC2)nn1 | EC50 | nM | 838 |
| Cn1ccc2c([C@H](Nc3cc(Cl)c4ncc(C#N)c(NCC(C)(C)C)c4c3)c3cn(C4CCN(C(C)(C)C)CC4)nn3)cccc2c1=O | EC50 | nM | 57 |
| Cn1nccc1[C@H](Nc1cc(C#N)c2ncc(C#N)c(NCC(C)(C)C)c2c1)c1cn(C2(C(F)(F)F)CC2)nn1 | EC50 | nM | 131 |
| Cc1ncsc1[C@H](Nc1cc(Cl)c2ncc(C#N)c(Nc3ccc(F)c(Cl)c3)c2c1)c1cn(C2CCN(C(C)(C)C)CC2)nn1 | EC50 | nM | 60 |
| N#Cc1cnc2c(Cl)cc(N[C@@H](c3cccnc3)c3cn(C4COC4)nn3)cc2c1Nc1cnc(F)c(F)c1 | EC50 | nM | 2520 |
| N#Cc1cnc2c(Cl)cc(N[C@@H](c3cccnc3)c3cn(CCN4CCCCC4)nn3)cc2c1Nc1ccc(F)c(Cl)c1 | EC50 | nM | 82 |
| N#Cc1cnc2c(Cl)cc(N[C@H](c3c[nH]nn3)c3cnccc3Cl)cc2c1Nc1cnc(F)c(F)c1 | EC50 | nM | 3760 |

[a] CC(C)n1cc([C@@H](Nc2cc(Cl)c3ncc(C#N)c(Nc4ccc(F)c(Cl)c4)c3c2)c2ccc3c(c2)CNCC3)nn1
[b] [2H]c1c([C@@H](Nc2cc(Cl)c3ncc(C#N)c(NCC(C)(C)C)c3c2)c2ccc(F)nc2C)nnn1C1(C(F)(F)F)CC1
[c] CC(C)(C)CNc1c(C#N)cnc2c(Cl)cc(N[C@H](c3cn(C4CC4)nn3)c3cccn4cncc34)cc12
[d] Cn1ccc([C@H](Nc2cc(Cl)c3ncc(C#N)c(Nc4ccc(F)c(Cl)c4)c3c2)c2cn(C3CCN(C(C)(C)C)CC3)nn2)n1
# input Order the records, beginning with the lowest EC50 and ending with the highest. Return the labels ranked in the requested order, please.
# output b, c, d, a

====

target: Human Cot (Homo sapiens (Human), UniProt P41279); assay: High Throughput Cot Biochemical Assay; settings: read-out: IC50 HTRF; Cot HTRF (TR-FRET) biochemical assay
Sequence (P41279 30-397): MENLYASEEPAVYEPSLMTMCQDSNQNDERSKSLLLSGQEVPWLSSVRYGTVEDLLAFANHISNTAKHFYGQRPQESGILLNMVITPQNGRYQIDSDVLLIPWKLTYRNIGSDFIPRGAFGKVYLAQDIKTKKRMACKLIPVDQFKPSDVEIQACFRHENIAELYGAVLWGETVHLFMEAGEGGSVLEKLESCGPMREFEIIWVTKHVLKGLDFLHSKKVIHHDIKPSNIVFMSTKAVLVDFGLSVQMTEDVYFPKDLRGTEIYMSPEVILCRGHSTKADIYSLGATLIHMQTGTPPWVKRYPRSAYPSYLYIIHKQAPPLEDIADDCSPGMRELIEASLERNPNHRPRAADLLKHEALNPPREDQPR
pIC50: −log10 of the molar value.
value.kind: pIC50

Some molecules with recorded pIC50:
| molecule | value.reported |
| --- | --- |
| N#Cc1cnc2c(Cl)cc(N[C@@H](c3cocn3)c3c[nH]nn3)cc2c1N[C@H](CO)c1ccccc1 | 6.59 |
| CC(C)(C)CNc1c(C#N)cnc2c(C#N)cc(N[C@H](c3cn(C4(C(N)=O)CC4)nn3)c3cccc4cnccc34)cc12 | 8.70 |
| Cn1ccc2c([C@H](Nc3cc(Cl)c4ncc(C#N)c(NCC(C)(C)C(F)(F)F)c4c3)c3cn(C4(C)CC4)nn3)cccc2c1=O | 8.70 |
| CC(C)n1cc([C@@H](Nc2cc(Cl)c3ncc(C#N)c(N[C@@H](CCO)c4ccccc4)c3c2)c2cccnc2)nn1 | 8.10 |
| N#Cc1cnc2c(Cl)cc(N[C@@H](c3cocn3)c3cn(C4CCN(C5COC5)CC4)nn3)cc2c1Nc1ccc(Cl)c(Cl)c1F | 6.84 |

[I] Cc1nc(Cl)ccc1[C@H](Nc1cc(Cl)c2ncc(C#N)c(Nc3ccc(F)c(Cl)c3)c2c1)c1cn(C2CCN(C(C)(C)C)CC2)nn1
[II] CC(C)(C)N1CCC(n2cc([C@@H](Nc3cc(Cl)c4ncc(C#N)c(NC5CCCCC5)c4c3)c3cccnc3)nn2)CC1
[III] N#Cc1cnc2c(Cl)cc(N[C@@H](c3cscn3)c3cn(CCN)nn3)cc2c1Nc1ccc(F)c(Cl)c1
[IV] Cc1nc(F)ccc1[C@H](Nc1cc(Cl)c2ncc(C#N)c(N[C@@H]3CCOCC3(C)C)c2c1)C1=CN(C2(C3CC3)CC2)NN1
[V] CC(C)(C)CNc1c(C#N)cnc2c(Cl)cc(N[C@@H](c3cn(C4CC4)nn3)c3csc4c3CCN(C3COC3)C4)cc12
# input Task field, ranking: reported pIC50, descending order. Return the labels ranked in the requested order, please.
# output IV, III, I, II, V
(IV: 9.00, III: 8.52, I: 8.10, II: 7.70, V: 6.40)

[A] CC(C)(C)CNc1c(C#N)cnc2c(C#N)cc(N[C@H](c3cn(C4(C(F)(F)F)CC4)nn3)c3cccc4c(=O)[nH]ccc34)cc12
[B] CC(C)(C)CNc1c(C#N)cnc2c(Cl)cc(N[C@H](c3cn(C4(C5CC5)CC4)nn3)c3cccc4cnccc34)cc12
[C] C[C@@H](Nc1c(C#N)cnc2c(Cl)cc(N[C@H](c3cn(C4CCN(C(C)(C)C)CC4)nn3)c3csc4c3CCN(C3COC3)C4)cc12)c1ccccc1
# input Order the records, beginning with the lowest pIC50 and ending with the highest. Return the labels ranked in the requested order, please.
# output B, A, C
